test_summary: Stability assessment by HPLC after storage
Assay type: physicochemical
assay_setup: initial, before storage
readout: HPLC content, Initial (%)

>>> value_measured("CC(C)C(=O)N([C@H]1C[C@@H](C(=O)N2CCOCC2)N(C(=O)[C@@H]2CN(C(C)(C)C)C[C@H]2c2ccc(Cl)cc2)C1)[C@H]1CC[C@@H](C)CC1")
97.8
